# credit: patent US20180291081A1

- subject-of-test: T1, PD-1 molecule (refolded, purified and biotinylated PD-1 of Example 2) (UniProt Q15116 33-150, biotinylated with BirA enzyme (site not stated))
- T1 construct: also called Programmed Death-1
- assay-protocol: SPR (BIAcore T200), single-cycle kinetics; biotinylated PD-1 captured via streptavidin, PDL-1 variant in solution
measurement-type: pKd
In plain terms, pKd is the concentration in mol/L turned into minus its base-10 logarithm.

high affinity PDL-1 molecule L3C7b (ligand) FTVTVPKDLYVVEYGSNMTIECKFPVEKQLDLAALEVHWFMEDKNIFSFVHGEEDLKVQHSSYRQRARLLKDQLSLGNAALQITDVKLQDAGVYVCLIGYKGADYKRITVKVNAPYNKINQRILVVDPVTSEHELTCQAEGYPKAEVIWTSSDHQVLSGKTTTTNSKREEKLFNVTSTLRINTTTNEIFYCTFRRLDPEENHTAELVIPEL = 6.91
high affinity PDL-1 molecule L3G10 (ligand) FTVTVPKDLYVVEYGSNMTIECKFPVEKQLDLAALTVAWYMEDKNIIQFVHGEEDLKVQHSSYRQRARLLKDQLSLGNAALQITDVKLQDAGVYTCLIGYDGADYKRITVKVNAPYNKINQRILVVDPVTSEHELTCQAEGYPKAEVIWTSSDHQVLSGKTTTTNSKREEKLFNVTSTLRINTTTNEIFYCTFRRLDPEENHTAELVIPEL = 4.93

Request: What value of measured pKd is listed for high affinity PDL-1 molecule L22A5 (ligand) FTVTVPKDLYVVEYGSNMTIECKFPVEKQLDLAALQVHWFMEDKNIPSFVHGEEDLKVQHSSYRQRARLLKDQLSLGNAALQITDVKLQDAGVYRCMISYGGADYKRITVKVNAPYNKINQRILVVDPVTSEHELTCQAEGYPKAEVIWTSSDHQVLSGKTTTTNSKREEKLFNVTSTLRINTTTNEIFYCTFRRLDPEENHTAELVIPEL ?
Response: 5.31
